DC50: recorded values
target: Cbl-B (Homo sapiens); construct: MSD-Based Assay for Degradation of Cbl-B in THP-1 Cells; endogenous in cells; host or cells: THP-1 (title) / Jurkat (protocol text); assay: MSD-based assay for degradation of Cbl-B in THP-1 cells; type: cell-based; details: Cbl-B degradation, Jurkat cells seeded (heading: THP-1 cells), 24 hours incubation, MSD readout
Sequence (Q13191 whole entry): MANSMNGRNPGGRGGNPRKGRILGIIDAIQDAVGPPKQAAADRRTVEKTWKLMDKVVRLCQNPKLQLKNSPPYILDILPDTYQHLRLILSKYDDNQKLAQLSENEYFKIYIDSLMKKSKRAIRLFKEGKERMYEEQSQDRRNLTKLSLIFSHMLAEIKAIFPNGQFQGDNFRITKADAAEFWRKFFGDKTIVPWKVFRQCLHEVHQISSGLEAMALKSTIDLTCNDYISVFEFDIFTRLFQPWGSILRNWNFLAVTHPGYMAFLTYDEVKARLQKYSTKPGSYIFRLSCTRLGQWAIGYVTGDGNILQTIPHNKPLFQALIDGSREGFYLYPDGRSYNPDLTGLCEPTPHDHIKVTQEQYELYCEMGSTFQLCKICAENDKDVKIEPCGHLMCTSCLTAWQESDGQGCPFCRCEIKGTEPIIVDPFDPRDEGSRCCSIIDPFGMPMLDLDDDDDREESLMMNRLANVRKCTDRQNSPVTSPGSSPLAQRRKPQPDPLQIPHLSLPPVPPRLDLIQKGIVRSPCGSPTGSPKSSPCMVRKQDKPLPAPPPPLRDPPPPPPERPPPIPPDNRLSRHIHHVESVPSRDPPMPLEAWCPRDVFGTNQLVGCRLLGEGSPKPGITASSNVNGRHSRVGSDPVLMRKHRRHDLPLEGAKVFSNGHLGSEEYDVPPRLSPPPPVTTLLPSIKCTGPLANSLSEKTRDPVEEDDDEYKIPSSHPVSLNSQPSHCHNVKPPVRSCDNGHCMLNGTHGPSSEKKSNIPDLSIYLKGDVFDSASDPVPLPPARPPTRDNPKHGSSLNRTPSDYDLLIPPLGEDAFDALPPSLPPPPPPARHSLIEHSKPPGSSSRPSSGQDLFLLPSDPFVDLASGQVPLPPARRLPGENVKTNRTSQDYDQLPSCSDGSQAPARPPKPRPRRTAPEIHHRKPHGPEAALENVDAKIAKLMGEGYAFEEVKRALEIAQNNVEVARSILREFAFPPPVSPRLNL
assayEndpoint: DC50

{"columns": ["molecule", "assayEndpoint", "measured"],
 "data": [
  ["Cn1cnnc1[C@@H](c1cccc(-n2cc3c(C(F)(F)F)cc(CN4CCC(OCCOCc5ccc(CN6CCN(c7cc8c(cc7F)C(=O)N(C7CCC(=O)NC7=O)C8=O)CC6)cc5)CC4)cn3c2=O)c1)C1CCC1 (stereo partly shown) [Compound 23]", "DC50", "> 10000 nM"],
  ["CN(CCO[C@@H]1CCCN(Cc2cc(C(F)(F)F)c3cn(-c4cccc([C@H](c5nncn5C)C5CCC5)c4)c(=O)n3c2)C1)C(=O)c1ccc(N2CCN(c3ccc4c(c3)CN([C@@H]3CCC(=O)NC3=O)C4=O)CC2)cc1 (single isomer, unassigned) [Compound 103]", "DC50", "300 to 1000 nM"],
  ["Cn1cnnc1CC1(c2cccc(-n3cc4c(C(F)(F)F)cc(CN5CCC(C(=O)N6CCC(CN7CCN(c8ccc9c(c8)CN(C8CCC(=O)NC8=O)C9=O)CC7)CC6)CC5)cn4c3=O)c2)COC1 (stereo not shown) [Compound 43]", "DC50", "> 10000 nM"],
  ["CN(CCOC1CCN(Cc2cc(C(F)(F)F)c3cn(-c4cccc([C@H](c5nncn5C)C5CCC5)c4)c(=O)n3c2)CC1)C(=O)c1ccc(N2CCN(c3ccc4c(c3)CN([C@H]3CCC(=O)NC3=O)C4=O)CC2)cc1 [Compound 34]", "DC50", "30 to 300 nM"]
]}

----------
DC50: recorded values
molecular target: Cbl-B (Homo sapiens); construct: MSD-Based Assay for Degradation of Cbl-B in THP-1 Cells; endogenous in cells; host or cells: THP-1 (title) / Jurkat (protocol text); assay: MSD-based assay for degradation of Cbl-B in THP-1 cells; assay type: cell-based; conditions: Cbl-B degradation, Jurkat cells seeded (heading: THP-1 cells), 24 hours incubation, MSD readout
assayEndpoint: DC50

{"columns": ["compound", "measured"],
 "data": [
  ["Cn1cnnc1[C@@H](c1cccc(-n2cc3c(C(F)(F)F)cc(CN4CCC[C@@H](OCc5ccc(CC6CCN(c7ccc8c(c7)CN([C@H]7CCC(=O)NC7=O)C8=O)CC6)cc5)C4)cn3c2=O)c1)C1CCC1 (single isomer, unassigned) [Compound 192]", "1000 to 10000 nM"],
  ["Cn1cnnc1[C@@H](c1cccc(-n2cc3c(C(F)(F)F)cc(CN4CCC(OCc5ccc(C(=O)N6CCN(c7ccc8c(c7)CN([C@@H]7CCC(=O)NC7=O)C8=O)CC6)cc5)CC4)cn3c2=O)c1)C1CCC1 (single isomer, unassigned) [Compound 157]", "> 10000 nM"],
  ["CN(CC1CCN(Cc2cc(C(F)(F)F)c3cn(-c4cccc([C@H](c5nncn5C)C5CCC5)c4)c(=O)n3c2)CC1)C(=O)c1ccc(C2CCN(c3ccc4c(c3)CN([C@H]3CCC(=O)NC3=O)C4=O)CC2)cc1 (single isomer, unassigned) [Compound 200]", "< 30 nM"],
  ["Cn1cnnc1[C@@H](c1cccc(-n2cc3c(C(F)(F)F)cc(CN4CCC(CCN5CCC(CN6CCN(c7ccc8c(c7)CN([C@@H]7CCC(=O)NC7=O)C8=O)CC6)CC5)CC4)cn3c2=O)c1)C1CCC1 (single isomer, unassigned) [Compound 109]", "30 to 300 nM"],
  ["Cn1cnnc1[C@@H](c1cccc(-n2cc3c(C(F)(F)F)cc(CN4CCC(OCc5cccc(C(=O)N6CCN(c7ccc8c(c7)CN([C@H]7CCC(=O)NC7=O)C8=O)CC6)c5)CC4)cn3c2=O)c1)C1CCC1 (single isomer, unassigned) [Compound 154]", "300 to 1000 nM"],
  ["CN(CCC1CCN(Cc2cc(C(F)(F)F)c3cn(-c4cccc([C@H](c5nncn5C)C5CCC5)c4)c(=O)n3c2)CC1)C(=O)c1ccc(N2CCN(c3ccc4c(c3)CN([C@@H]3CCC(=O)NC3=O)C4=O)CC2)cc1 (single isomer, unassigned) [Compound 185]", "30 to 300 nM"],
  ["Cn1cnnc1CC1(c2cccc(-n3cc4c(C(F)(F)F)cc(CNCCOCCOCc5ccc(COCCNc6cccc7c6C(=O)N(C6CCC(=O)NC6=O)C7=O)cc5)cn4c3=O)c2)COC1 (centres unmarked) [Compound 4]", "> 10000 nM"],
  ["CN(CC1CCN(Cc2cc3c(c(C(F)(F)F)c2)CN(c2cccc([C@H](c4nncn4C)C4CCC4)c2)C3=O)CC1)C(=O)c1ccc(N2CCN(c3ccc4c(c3)CN([C@@H]3CCC(=O)NC3=O)C4=O)CC2)cc1 [Compound 183]", "30 to 300 nM"]
]}
